Reported Ki values for the following molecules.
tgt: FKBP12 (Homo sapiens, UniProt P62942)
Sequence (P62942 whole entry, species assumed): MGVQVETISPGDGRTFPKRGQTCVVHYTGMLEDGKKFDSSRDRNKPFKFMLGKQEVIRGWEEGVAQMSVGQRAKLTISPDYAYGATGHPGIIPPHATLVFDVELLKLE
test protocol: Ki test procedure: inhibition of peptidyl-prolyl isomerase (rotamase) activity, chymotrypsin-coupled assay
Format: biochemical
settings: apparent Ki, FKBP rotamase inhibition
measured property: Ki

molecule: COc1cc(S(=O)(=O)N2CCCCC2C(=O)SCCCCc2ccccc2)cc(OC)c1OC (stereo not drawn) [Compound 13]
measured property: Ki
result: 1 to 50 nM
--
molecule: Cc1ccc(S(=O)(=O)N2CCCC2C(=O)SCCC(c2ccccc2)c2ccccc2)cc1 (stereo not drawn) [Compound 9]
measured property: Ki
result: 1 to 50 nM
--
molecule: O=C(SCCCCc1ccccc1)C1CCCCN1S(=O)(=O)Cc1ccccc1 (stereo not drawn) [Compound 11]
measured property: Ki
result: 51 to 200 nM

---

tgt: FKBP12 (Homo sapiens, UniProt P62942)

compound: O=C(SCCc1ccccc1)C1CCCN1S(=O)(=O)c1ccccc1 (centres unmarked)
tgt: FKBP12 (Homo sapiens, UniProt P62942)
Ki: 0.001 to 0.05 µM

compound: O=C(SCCC(c1ccccc1)c1ccccc1)C1CCCN1S(=O)(=O)Cc1ccccc1 (centres unmarked)
tgt: FKBP12 (Homo sapiens, UniProt P62942)
Ki: 0.001 to 0.05 µM

compound: Cc1ccc(S(=O)(=O)N2CCCC2C(=O)SCCc2ccccc2)cc1 (centres unmarked)
tgt: FKBP12 (Homo sapiens, UniProt P62942)
Ki: 0.051 to 0.2 µM

compound: O=C(SC(CCCc1ccccc1)CCCc1ccccc1)C1CCCCN1S(=O)(=O)Cc1ccccc1 (centres unmarked)
tgt: FKBP12 (Homo sapiens, UniProt P62942)
Ki: 0.051 to 0.2 µM

compound: COc1ccc(CCCSC(=O)C2CCCN2S(=O)(=O)Cc2ccccc2)cc1 (centres unmarked)
tgt: FKBP12 (Homo sapiens, UniProt P62942)
Ki: 0.051 to 0.2 µM
